Provide the recorded FACS-Seq fitted mean (log10) for the entries that follow.
B1: library; a variant is named by its letters at N, in order (parent)
chain: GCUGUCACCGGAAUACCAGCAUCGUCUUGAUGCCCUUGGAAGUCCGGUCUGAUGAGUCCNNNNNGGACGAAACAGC

# Variants of: B1
# TEST_SUMMARY: FACS-Seq fitted mean relative fluorescence mCherry/BFP with ligand (log10 relative fluorescence); ligand concentration (+) FACS-Seq: 1 mM; higher = higher reporter protein expression
# MEASUREMENT_CONDITIONS: HEK293T, ligand present: yes
Give only the figure.

input: What FACS-Seq fitted mean (log10) value was documented for this variant, GAUGG ?
output: -0.332

input: So what does the record say about FACS-Seq fitted mean (log10) for UGGCU ?
output: 0.992

input: Bench note: what FACS-Seq fitted mean (log10) did ACCGU show?
output: 0.856

input: What value of FACS-Seq fitted mean (log10) has been recorded for this entry: ACAUC
output: 0.599

input: I'd like to know its FACS-Seq fitted mean (log10). The variant in question is CUAUA
output: 0.384

input: Consider the variant CGUGA and give its measured FACS-Seq fitted mean (log10).
output: 0.221

input: Item under review: AUUAA . Reported FACS-Seq fitted mean (log10)?
output: 0.832

input: # get_value(readout='FACS-Seq fitted mean (log10)', item= CUAAC )
output: 0.893

input: Given AGGGU , state its recorded FACS-Seq fitted mean (log10).
output: 0.897

input: FACS-Seq fitted mean (log10) lookup needed for UUUCC , thanks.
output: 0.926

input: For the variant CCAAC , what FACS-Seq fitted mean (log10) is on record?
output: 0.767

input: Query (variant): UCAGA ; field requested: FACS-Seq fitted mean (log10)
output: 0.627

input: Field request: FACS-Seq fitted mean (log10) | item: CAACA
output: 0.886

input: Field request: FACS-Seq fitted mean (log10) | item: CUUAU
output: 0.901

input: Which measured FACS-Seq fitted mean (log10) value corresponds to UAUGC ?
output: 0.278

input: # query: FACS-Seq fitted mean (log10) of entry CCGCU
output: 0.381

input: Recorded FACS-Seq fitted mean (log10) for CCGUA , please?
output: 0.992

input: Consider the variant shown here: AGCGA What is its recorded FACS-Seq fitted mean (log10)?
output: 0.503

input: Item UGAGA has what recorded FACS-Seq fitted mean (log10)?
output: 0.709

input: Field request: FACS-Seq fitted mean (log10) | item: AAGUC
output: 0.866

input: Could you tell me which FACS-Seq fitted mean (log10) is on file for AAAAC ?
output: 0.873

input: Could you share which FACS-Seq fitted mean (log10) value was measured for GUAAU ?
output: 0.966

Reference source for all entries: the supplement of paper PMC6757056
